From: patent US10294202B2

Tested on: crabgrass, large
Experiment: Test A pre-/postemergence herbicide test
Format: in vivo, Digitaria sanguinalis
Conditions: preemergence, 500 g ai/ha; 0 to 100 scale

>  <compound>
O=C1NCC(c2cc(F)c(F)c(F)c2)C1C(=O)Nc1cccc(F)c1F (centres unmarked)

>  <Plant response rating, Crabgrass, Large>
90

$$$$
>  <compound>
O=C1NCC(c2ccc(F)c(F)c2)C1C(=O)Nc1cccc(C(F)(F)F)c1 (racemic)

>  <Plant response rating, Crabgrass, Large>
80

$$$$
>  <compound>
O=C1NCC(c2ccc(F)c(F)c2)C1C(=O)Nc1ccccn1 (centres unmarked)

>  <Plant response rating, Crabgrass, Large>
90

$$$$
>  <compound>
O=C1NCC(c2ccc3c(c2)OC(F)(F)O3)C1C(=O)Nc1ccccc1C(F)(F)F (racemic)

>  <Plant response rating, Crabgrass, Large>
90

$$$$
>  <compound>
O=C1NCC(c2cccc(OC(F)(F)F)c2)C1C(=O)Nc1ccccc1F (centres unmarked)

>  <Plant response rating, Crabgrass, Large>
90

$$$$
>  <compound>
Cc1cccc(NC(=O)C2C(=O)NCC2c2ccc(F)c(F)c2)c1 (centres unmarked)

>  <Plant response rating, Crabgrass, Large>
90

$$$$
>  <compound>
Cc1cccc(C2CNC(=O)C2C(=O)Nc2ccccc2F)c1 (racemic)

>  <Plant response rating, Crabgrass, Large>
80

$$$$
>  <compound>
O=C1NCC(c2ccc(F)c(F)c2)C1C(=O)Nc1ccccc1C(F)(F)F (racemic)

>  <Plant response rating, Crabgrass, Large>
90

$$$$
>  <compound>
Cc1cccc(C2CN(C(=O)OC(C)(C)C)C(=O)C2C(=O)Nc2ccccc2F)c1 (centres unmarked)

>  <Plant response rating, Crabgrass, Large>
80

$$$$
>  <compound>
O=C1NCC(c2ccccc2)C1C(=O)Nc1ccccc1Cl (racemic)

>  <Plant response rating, Crabgrass, Large>
90

$$$$
>  <compound>
O=C1NCC(c2ccsc2)C1C(=O)Nc1ccccc1F (racemic)

>  <Plant response rating, Crabgrass, Large>
70

$$$$
